Recorded measurements of ε (extinction coefficient), one per entry
- METHOD_SUMMARY: Absorption and fluorescence spectroscopy of dyes
- Assay type: physicochemical
- EXPERIMENTAL_SETUP: aqueous buffer
Counter-ions that a name gives are not always drawn.
Units required after the number.

Below are worked cases with known answers.
COMPOUND	READING
Cc1cc(=O)oc2cc(N3CCC3)ccc12	15000 M⁻¹ cm⁻¹
c1cc2nc3ccc(=[N+]4CCC4)cc-3oc2cc1N1CCC1 [Example 61, trifluoroacetate]	99000 M⁻¹ cm⁻¹
Cc1cc(=O)oc2cc(N(C)C)ccc12 [Coumarin 461, reference compound]	18000 M⁻¹ cm⁻¹
CCN(CC)c1ccc2nc3ccc(=[N+](CC)CC)cc-3oc2c1.[O-][Cl+3]([O-])([O-])[O-] [Oxazine 1, reference compound]	111000 M⁻¹ cm⁻¹
O=C(O)c1cc2ccc(N3CCC3)cc2oc1=O	24000 M⁻¹ cm⁻¹

Measured ε (extinction coefficient) of CN(C)c1ccc2c(c1)Oc1cc(O)ccc1C21OC(=O)c2ccccc21 (stereo not drawn) [dimethyl rhodol, reference compound] : 60000 M⁻¹ cm⁻¹

Measured ε (extinction coefficient) of Cl.N=c1ccc2c(-c3ccccc3C(=O)O)c3ccc(N)cc3oc-2c1 [rhodamine 110, reference compound] : 76000 M⁻¹ cm⁻¹

Measured ε (extinction coefficient) of "CC1(C)C2=CC(=[N+]3CCC3)C=CC2=C(c2ccccc2C(=O)[O-])c2ccc(N3CCC3)cc21" : 99000 M⁻¹ cm⁻¹

Measured ε (extinction coefficient) of CN(C)c1ccc2c(-c3ccccc3C(=O)[O-])c3ccc(N(C)C)cc3[o+]c2c1 [TMR, tetramethylrhodamine, reference compound] : 78000 M⁻¹ cm⁻¹

====

Recorded measurements of τ, one per entry
- METHOD_SUMMARY: Fluorescence lifetime measurement
- EXPERIMENTAL_SETUP: Table 2; 10 mM HEPES pH 7.3 per table footnote
Respond numerically; units are ns and should not be typed.

Below are worked cases with known answers.
COMPOUND	τ, ns
O=C1OC2(c3ccc(N4CCCCC4)cc3Oc3cc(N4CCCCC4)ccc32)c2ccccc21 [piperidine derivative, reference compound]	0.59
O=C([O-])c1ccccc1-c1c2ccc(=[N+]3CCC3)cc-2oc2cc(N3CCC3)ccc12 [Example 7]	3.84

Measured τ of CN(C)c1ccc2c(-c3ccccc3C(=O)[O-])c3ccc(N(C)C)cc3[o+]c2c1 [TMR, tetramethylrhodamine, reference compound] : 2.21

Measured τ of Cl.N=c1ccc2c(-c3ccccc3C(=O)O)c3ccc(N)cc3oc-2c1 [rhodamine 110, reference compound] : 3.26

====

Recorded measurements of ε, one per entry
- METHOD_SUMMARY: Absorption and fluorescence spectroscopy of dyes
- Format: physicochemical
- EXPERIMENTAL_SETUP: Table 2; 10 mM HEPES pH 7.3
- Method: Phosphate buffered saline (PBS) was at pH 7.4 unless otherwise noted. Spectroscopy was performed using 1-cm path length, 3.5-mL quartz cuvettes from Starna Cells or 1-cm path length, 1.0-mL quartz microcuvettes from Hellma. […] Absorption spectra were recorded on a Cary Model 100 spectrometer (Varian); reported values for extinction coefficients (ε) are averages (n=3). Fluorescence spectra were recorded on a Cary Eclipse fluorometer (Varian). […]

Below are worked cases with known answers.
COMPOUND	ε
CN(C)c1ccc2c(-c3ccccc3C(=O)[O-])c3ccc(N(C)C)cc3[o+]c2c1 [TMR, tetramethylrhodamine, reference compound]	78,000 M^−1 cm^−1
O=C([O-])c1ccccc1-c1c2ccc(=[N+]3CCC3)cc-2oc2cc(N3CCC3)ccc12	101,000 M^−1 cm^−1

Measured ε of Cl.N=c1ccc2c(-c3ccccc3C(=O)O)c3ccc(N)cc3oc-2c1 [rhodamine 110, reference compound] : 76,000 M^−1 cm^−1

Measured ε of O=C1OC2(c3ccc(N4CCCCC4)cc3Oc3cc(N4CCCCC4)ccc32)c2ccccc21 [piperidine derivative, reference compound] : 80,000 M^−1 cm^−1
